- measurement_target: CYP3A4 (Homo sapiens, UniProt P08684)
- Sequence (P08684 whole entry): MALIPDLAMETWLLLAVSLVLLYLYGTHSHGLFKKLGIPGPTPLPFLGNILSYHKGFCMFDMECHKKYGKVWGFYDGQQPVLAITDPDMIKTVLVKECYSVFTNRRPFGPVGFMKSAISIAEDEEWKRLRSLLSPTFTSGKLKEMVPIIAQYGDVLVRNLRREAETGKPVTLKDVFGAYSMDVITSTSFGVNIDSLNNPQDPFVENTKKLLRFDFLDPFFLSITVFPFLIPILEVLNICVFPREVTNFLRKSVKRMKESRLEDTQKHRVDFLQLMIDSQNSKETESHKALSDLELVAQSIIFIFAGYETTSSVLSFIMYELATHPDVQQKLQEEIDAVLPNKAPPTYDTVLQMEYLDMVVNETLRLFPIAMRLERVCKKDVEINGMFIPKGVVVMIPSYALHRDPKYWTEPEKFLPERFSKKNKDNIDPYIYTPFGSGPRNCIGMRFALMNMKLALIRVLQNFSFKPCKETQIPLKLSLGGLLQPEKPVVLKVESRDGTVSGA
- experimental_protocol: Drug metabolism assessed as CYP3A4-mediated compound loss after 30 mins
- Type: ADME
- cond: recombinant enzyme; read-out: Drug metabolism
attribute_measured: metabolised at 0.5 h (%)
# value in %; strip the unit string

Just so you know, measured metabolised at 0.5 h for `N[C@H]1CC[C@H](Nc2ncc3nc(Nc4ccc(F)cc4F)n(C4CCCC4)c3n2)CC1` came out at 10

* * *

- measurement_target: c-Jun N-terminal kinase, JNK (Homo sapiens, UniProt P45983+P53779+P45984)
- experimental_protocol: Inhibition of JNK-mediated cJun phosphorylation in anisomysin-stimulated human Jurkat T cells pretreated for 30 mins before anisomysin stimulation measured after 10 mins by DELFIA assay
- Format: cell-based
Record form. Attribute: IC50. Fill in for each entry.
Your answer is read as nM, so omit the unit and give the number.

Short answer for `N[C@H]1CC[C@H](Nc2ncc3nc(Nc4ccccc4F)n(C4CCCC4)c3n2)CC1` : IC50 was 300

Item: `N[C@H]1CC[C@H](Nc2ncc3nc(Nc4ccc(F)cc4F)n(C4CCCC4)c3n2)CC1` | IC50: 350

Just so you know, measured IC50 for `N[C@H]1CC[C@H](Nc2ncc3nc(Nc4c(F)cccc4F)n(C4CCCC4)c3n2)CC1` came out at 210

The reported value for `N[C@H]1CC[C@H](Nc2ncc3nc(Nc4c(F)cc(F)cc4F)n(C4CCCC4)c3n2)CC1` in terms of IC50 is 240
